Hey, just so you know, these numbers are from the supplement of paper PMC4862054.

Listing: normalised viability of selected compounds
# Test system: BT-474
# assay_protocol: normalised viability (% of control), CellTiter-Blue; higher = more viable cells (about 100 = DMSO control)
# condition_summary: 100 nM; incubation time: 72 h
Respond with the bare value in %.

smi=COc1cccc2c1C(=O)c1c(O)c3c(c(O)c1C2=O)C[C@@](O)(C(=O)CO)C[C@@H]3O[C@H]1C[C@H](N)[C@H](O)[C@H](C)O1 measurement_target=BT-474 parameter_measured="normalised viability" assay_result=84.7

BT-474 normalised viability of Cc1c2oc3c(C)ccc(C(=O)N[C@@H]4C(=O)N[C@H](C(C)C)C(=O)N5CCC[C@H]5C(=O)N(C)CC(=O)N(C)[C@@H](C(C)C)C(=O)O[C@@H]4C)c3nc-2c(C(=O)N[C@@H]2C(=O)N[C@H](C(C)C)C(=O)N3CCC[C@H]3C(=O)N(C)CC(=O)N(C)[C@@H](C(C)C)C(=O)O[C@@H]2C)c(N)c1=O is 25.2

The reported normalised viability value, BT-474, for CO[C@H]1C[C@@H]2CC[C@@H](C)[C@@](O)(O2)C(=O)C(=O)N2CCCC[C@H]2C(=O)O[C@H]([C@H](C)C[C@@H]2CC[C@@H](OC(=O)C(C)(CO)CO)[C@H](OC)C2)CC(=O)[C@H](C)/C=C(\C)[C@@H](O)[C@@H](OC)C(=O)[C@H](C)C[C@H](C)/C=C/C=C/C=C/1C reads 58.6

Short answer on BT-474 for Nc1nc(Cl)nc2c1ncn2[C@H]1C[C@H](O)[C@@H](CO)O1 , normalised viability: 102

====

# Tested on: MDA-MB-231
# assay_protocol: drug sensitivity score (DSS), CellTiter-Glo (DSS (AUC-based score)); higher = stronger drug effect (viability inhibition or cytotoxicity); extreme values may be limits of the assay
# condition_summary: incubation time: 72 h
parameter_measured: drug sensitivity score
Form rule: numeric answer, no unit written next to it.

Sample answers from the record:
smi=Nc1ccn([C@@H]2O[C@H](CO)[C@@H](O)[C@@H]2O)c(=O)n1 measurement_target=MDA-MB-231 assay_result=0
smi=C[C@]1(c2nc3c(C(N)=O)cccc3[nH]2)CCCN1 measurement_target=MDA-MB-231 assay_result=0
smi=COc1cc(Nc2ncc3c(n2)-c2ccc(Cl)cc2C(c2c(F)cccc2OC)=NC3)ccc1C(=O)O measurement_target=MDA-MB-231 assay_result=4.67

Field drug sensitivity score (system: MDA-MB-231) for entry S=c1[nH]cnc2nc[nH]c12 = 7.35

Value (drug sensitivity score, MDA-MB-231) for record CC[C@]1(O)C[C@@H]2CN(CCc3c([nH]c4ccccc34)[C@@](C(=O)OC)(c3cc4c(cc3OC)N(C)[C@H]3[C@@](O)(C(=O)OC)[C@H](OC(C)=O)[C@]5(CC)C=CCN6CC[C@]43[C@@H]65)C2)C1 = 16.2

====

# Tested on: BT-549
# assay_protocol: normalised viability (% of control), CellTiter-Blue; higher = more viable cells (about 100 = DMSO control)
# condition_summary: 1000 nM; incubation time: 72 h
Recorded normalised viability for the following compounds
Unit % implied. Number only.

// known answers, use as guide
smi=C[C@]1(c2nc3c(C(N)=O)cccc3[nH]2)CCCN1 measurement_target=BT-549 assay_result=112
smi=COc1cc(Nc2ncc3c(n2)-c2ccc(Cl)cc2C(c2c(F)cccc2OC)=NC3)ccc1C(=O)O measurement_target=BT-549 assay_result=62.6
smi=COc1cccc2c1C(=O)c1c(O)c3c(c(O)c1C2=O)C[C@@](O)(C(=O)CO)C[C@@H]3O[C@H]1C[C@H](N)[C@H](O)[C@H](C)O1 measurement_target=BT-549 assay_result=5.36
smi=CN1CC[C@H](c2c(O)cc(O)c3c(=O)cc(-c4ccccc4Cl)oc23)[C@H](O)C1 measurement_target=BT-549 assay_result=9
smi=COc1cccc2cc(-c3nc([C@H]4CC[C@H](C(=O)O)CC4)n4ncnc(N)c34)[nH]c12 measurement_target=BT-549 assay_result=76

Could you now look at the following compound, please?
# lookup: S=c1[nH]cnc2nc[nH]c12 on BT-549, normalised viability = 105

====

# Tested on: BT-474
# assay_protocol: normalised viability (% of control), CellTiter-Blue; higher = more viable cells (about 100 = DMSO control)
# condition_summary: 10 nM; incubation time: 72 h
// values below are reported normalised viability
Supply the numeric figure in %, leaving out any unit text.

Worked examples follow.
smi=S=c1[nH]cnc2nc[nH]c12 units=% assay_result=116
smi=CS(=O)(=O)c1ccc(C(=O)Nc2ccc(Cl)c(-c3ccccn3)c2)c(Cl)c1 units=% assay_result=102
smi=C=CCNC1=C2C[C@@H](C)C[C@H](OC)[C@H](O)[C@@H](C)/C=C(\C)[C@H](OC(N)=O)[C@@H](OC)/C=C\C=C(/C)C(=O)NC(=CC1=O)C2=O units=% assay_result=104
smi=CN1CC[C@H](c2c(O)cc(O)c3c(=O)cc(-c4ccccc4Cl)oc23)[C@H](O)C1 units=% assay_result=102
smi=C[C@]1(c2nc3c(C(N)=O)cccc3[nH]2)CCCN1 units=% assay_result=101

Input COc1cc(Nc2ncc3c(n2)-c2ccc(Cl)cc2C(c2c(F)cccc2OC)=NC3)ccc1C(=O)O . Output normalised viability: 103

// field: normalised viability; key: Nc1ccn([C@@H]2O[C@H](CO)[C@@H](O)[C@@H]2O)c(=O)n1 ; value = 103

====

# Test system: MDA-MB-436
# assay_protocol: drug sensitivity score (DSS), CellTiter-Glo (DSS (AUC-based score)); higher = stronger drug effect (viability inhibition or cytotoxicity); extreme values may be limits of the assay
# condition_summary: incubation time: 72 h
parameter_measured: drug sensitivity score

smi=CCN1CCN(c2ccc(Nc3cc(N(C)C(=O)Nc4c(Cl)c(OC)cc(OC)c4Cl)ncn3)cc2)CC1 assay_result=0
smi=Cc1c2oc3c(C)ccc(C(=O)N[C@@H]4C(=O)N[C@H](C(C)C)C(=O)N5CCC[C@H]5C(=O)N(C)CC(=O)N(C)[C@@H](C(C)C)C(=O)O[C@@H]4C)c3nc-2c(C(=O)N[C@@H]2C(=O)N[C@H](C(C)C)C(=O)N3CCC[C@H]3C(=O)N(C)CC(=O)N(C)[C@@H](C(C)C)C(=O)O[C@@H]2C)c(N)c1=O assay_result=21

Let us examine a further case.
Consider CO[C@H]1C[C@@H]2CC[C@@H](C)[C@@](O)(O2)C(=O)C(=O)N2CCCC[C@H]2C(=O)O[C@H]([C@H](C)C[C@@H]2CC[C@@H](OC(=O)C(C)(CO)CO)[C@H](OC)C2)CC(=O)[C@H](C)/C=C(\C)[C@@H](O)[C@@H](OC)C(=O)[C@H](C)C[C@H](C)/C=C/C=C/C=C/1C . Its measured drug sensitivity score is 3.51

====

# System: CAL-51
# assay_protocol: normalised response (% of control), CellTox Green; higher = less cell death (100 = DMSO, 0 = benzethonium chloride kill control)
# condition_summary: incubation time: 72 h
The reader will find reported normalised response values listed item by item below.

// returns normalised response for Cc1ccc(F)c(NC(=O)Nc2ccc(-c3cccc4[nH]nc(N)c34)cc2)c1 [Linifanib] (10 nM) with CAL-51; value = 109%

Noted normalised response for Nc1ccn([C@@H]2O[C@H](CO)[C@@H](O)[C@@H]2O)c(=O)n1 [Cytarabine] (100 nM) , tested on CAL-51: 88.1%

====

# Test system: BT-549
# assay_protocol: normalised response (% of control), CellTiter-Glo; higher = more viable cells (100 = DMSO, 0 = benzethonium chloride kill control)
# condition_summary: incubation time: 72 h
parameter_measured: normalised response (%)
Answer format: numeric, % implied, no suffix.

compound="CS(=O)(=O)c1ccc(C(=O)Nc2ccc(Cl)c(-c3ccccn3)c2)c(Cl)c1 [Vismodegib] (10 nM)" units=% assay_result=96.4

C=CC[C@@H]1/C=C(\C)C[C@H](C)C[C@H](OC)[C@H]2O[C@@](O)(C(=O)C(=O)N3CCCC[C@H]3C(=O)O[C@H](/C(C)=C/[C@@H]3CC[C@@H](O)[C@H](OC)C3)[C@H](C)[C@@H](O)CC1=O)[C@H](C)C[C@@H]2OC [Tacrolimus] (1 nM) yielded normalised response of 96.6

So for Nc1ccn([C@@H]2O[C@H](CO)[C@@H](O)[C@@H]2O)c(=O)n1 [Cytarabine] (10 nM) , the logged normalised response turned out to be 96.8

Memo: CO[C@H]1C[C@@H]2CC[C@@H](C)[C@@](O)(O2)C(=O)C(=O)N2CCCC[C@H]2C(=O)O[C@H]([C@H](C)C[C@@H]2CC[C@@H](OC(=O)C(C)(CO)CO)[C@H](OC)C2)CC(=O)[C@H](C)/C=C(\C)[C@@H](O)[C@@H](OC)C(=O)[C@H](C)C[C@H](C)/C=C/C=C/C=C/1C [Temsirolimus] (10 nM) , reported normalised response: 55.1
